- Test system: human airway epithelial cells (HAECs)
- assay.comment: High-throughput sequencing (HTS) of miRNAs at four stages of differentiation of HAECs
- condition.parameters: HTS, ALI-D7
Each item that follows carries a reported Abundance (%), D7.
measure.name: Abundance (%), D7

hsa-miR-99a: human miRNA, SEQ ID No. 52 (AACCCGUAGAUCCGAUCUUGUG; expressed or natural sequence; listed as Homo sapiens); 0.52
hsa-miR-449a: human miRNA, SEQ ID No. 46 (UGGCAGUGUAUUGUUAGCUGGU; expressed or natural sequence; listed as Homo sapiens); 0.18
hsa-miR-125a-5p: human miRNA, SEQ ID No. 3 (UCCCUGAGACCCUUUAACCUGUGA; expressed or natural sequence; listed as Homo sapiens); 2.64
hsa-miR-34c-5p: human miRNA, SEQ ID No. 40 (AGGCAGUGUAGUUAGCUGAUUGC; expressed or natural sequence; listed as Homo sapiens); 0.13
hsa-miR-140-3p: human miRNA, SEQ ID No. 5 (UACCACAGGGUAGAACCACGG; expressed or natural sequence; listed as Homo sapiens); 1.48
hsa-miR-23b: human miRNA, SEQ ID No. 26 (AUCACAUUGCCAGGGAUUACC; expressed or natural sequence; listed as Homo sapiens); 9.19
hsa-miR-449c: human miRNA, SEQ ID No. 201 (UAGGCAGUGUAUUGCUAGCGGCUGU; expressed or natural sequence; listed as Homo sapiens); 0.00
hsa-miR-1975: human miRNA, SEQ ID No. 15 (CCCCCACAACCGCGCUUGACUAGCU; expressed or natural sequence; listed as Homo sapiens); 2.09
